target: αvβ3 integrin receptor (Homo sapiens, UniProt P05106+P06756); test: Competition ELISA, integrin antagonism (fibronectin ligand); settings: fibronectin binding to coated receptor, read-out: EC50 ανβ3
pEC50: −log10 of the molar value. Where a name gives a salt, the structure may show the parent alone.
measured.property: pEC50

compound	measured.property	measured.value
Cc1nc(NC[C@H](NC(=O)OCC(=O)O)C(=O)O)c(C)c(N2CCC(c3ccc4c(n3)NCCC4)CC2)n1 [cpd2, dihydrochloride]	pEC50	8.00 to 9.00

Challenge: Entry under review: Cc1nc(NC[C@H](NC(=O)OC(C)C(=O)O)C(=O)O)c(C)c(N2CCC(c3ccc4c(n3)NCCC4)CC2)n1 (some centres unmarked) [cpd3, dihydrochloride] . Reported pEC50?
Response given: 8.00 to 9.00

Challenge: Entry under review: COC(=O)CCOC(=O)N[C@@H](CNc1nc(C)nc(N2CCC(c3ccc4c(n3)NCCC4)CC2)c1C)C(=O)O [cpdA, reference compound] . Reported pEC50?
Response given: 8.00 to 9.00

Challenge: Entry under review: Cc1nc(NC[C@H](NC(=O)OCCC(=O)O)C(=O)O)c(C)c(N2CCC(c3ccc4c(n3)NCCC4)CC2)n1 [cpd1] . Reported pEC50?
Response given: 8.00 to 9.00

Challenge: Entry under review: Cc1nc(NC[C@H](NC(=O)OCc2ccccc2)C(=O)O)c(C)c(N2CCC(c3ccc4c(n3)NCCC4)CC2)n1 [cpdB, reference compound] . Reported pEC50?
Response given: 7.60 to 8.00

* * *

Listed compounds paired with reported pEC50
target: platelet integrin αIIbβ3 (Homo sapiens, UniProt P05106+P08514); assay: Competition ELISA, integrin antagonism (fibronectin ligand); conditions: fibronectin binding to coated receptor
pEC50: −log10 of the molar value. Structures can show the parent of a compound that is named as a salt.

Here's what some known entries look like.
compound	pEC50
Cc1nc(NC[C@H](NC(=O)OCc2ccccc2)C(=O)O)c(C)c(N2CCC(c3ccc4c(n3)NCCC4)CC2)n1 [cpdB, reference compound]	8.00 to 9.00
Cc1nc(NC[C@H](NC(=O)OCCC(=O)O)C(=O)O)c(C)c(N2CCC(c3ccc4c(n3)NCCC4)CC2)n1	< 7.60
COC(=O)CCOC(=O)N[C@@H](CNc1nc(C)nc(N2CCC(c3ccc4c(n3)NCCC4)CC2)c1C)C(=O)O [cpdA, reference compound]	8.00 to 9.00
Cc1nc(NC[C@H](NC(=O)OC(C)C(=O)O)C(=O)O)c(C)c(N2CCC(c3ccc4c(n3)NCCC4)CC2)n1 (some centres unmarked) [cpd3, dihydrochloride]	< 7.60

As a next step, examine the compound that follows.
Challenge: Entry under review: Cc1nc(NC[C@H](NC(=O)OCC(=O)O)C(=O)O)c(C)c(N2CCC(c3ccc4c(n3)NCCC4)CC2)n1 [cpd2, dihydrochloride] . Reported pEC50?
Response given: < 7.60
